# measurement.target: pim-1 kinase (Homo sapiens)
# Construct: The kinase used was cloned, expressed and purified using proprietary methods
# Sequence (P11309 whole entry): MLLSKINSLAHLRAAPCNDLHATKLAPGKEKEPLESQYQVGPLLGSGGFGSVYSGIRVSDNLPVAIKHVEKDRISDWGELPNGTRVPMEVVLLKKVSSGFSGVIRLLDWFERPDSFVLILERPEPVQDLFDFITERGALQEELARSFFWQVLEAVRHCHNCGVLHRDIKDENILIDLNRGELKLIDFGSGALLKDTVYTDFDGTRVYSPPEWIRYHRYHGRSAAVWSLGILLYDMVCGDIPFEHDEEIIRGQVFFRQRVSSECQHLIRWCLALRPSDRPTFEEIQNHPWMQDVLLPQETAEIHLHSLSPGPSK
# assay.info: Pim-1 kinase radioisotope (33P-ATP) assay, Kinexus compound profiling service
# Type: biochemical
# recorded.conditions: test compounds at 50 μM
readout.name: inhibition at 50 µM (%)

INSERT INTO assay_data (molecule, measurement) VALUES
  ('Cc1nc2sc3c(=O)[nH]c(-c4ccccc4F)nc3c2c(C)c1Br [Compound 6b]', 61),
  ('Cc1nc2sc3c(=O)[nH]c(-c4ccccc4Cl)nc3c2c(C)c1Br [Compound 6a]', 36),
  ('Cc1nc2sc3c(c2c(C)c1Br)NC(c1ccccc1O)NC3=O (centres unmarked) [Compound 7c]', 93),
  ('CCc1nc2c(sc3nc(C)c(Br)c(C)c32)c(=O)[nH]1 [Compound 8c]', 23),
  ('Cc1nc2sc3c(c2c(C)c1Br)NC(c1ccccc1C(F)(F)F)NC3=O (centres unmarked) [Compound 7d]', 98);
